Ref: patent US20250243180A1

target: NEK7 (Homo sapiens (Human), UniProt Q8TDX7+Q96SW2); test: NEK7 NanoBiT degradation assay in Cal51 NEK7 NanoBiT cell line; assay type: cell-based; conditions: CAL-51; Cal51 NEK7 NanoBiT cells, 24 hours; read-out: NEK7 NanoBiT Dmax
Sequence (Q8TDX7 whole entry): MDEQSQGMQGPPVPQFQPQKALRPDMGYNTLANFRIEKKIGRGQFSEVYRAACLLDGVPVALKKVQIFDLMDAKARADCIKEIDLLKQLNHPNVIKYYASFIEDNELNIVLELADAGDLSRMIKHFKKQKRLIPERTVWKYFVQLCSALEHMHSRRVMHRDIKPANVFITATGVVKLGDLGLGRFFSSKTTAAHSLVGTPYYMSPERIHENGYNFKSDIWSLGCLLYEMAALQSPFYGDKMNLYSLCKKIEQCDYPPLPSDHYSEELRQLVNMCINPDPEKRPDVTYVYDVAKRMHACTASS
Sequence (Q96SW2 whole entry): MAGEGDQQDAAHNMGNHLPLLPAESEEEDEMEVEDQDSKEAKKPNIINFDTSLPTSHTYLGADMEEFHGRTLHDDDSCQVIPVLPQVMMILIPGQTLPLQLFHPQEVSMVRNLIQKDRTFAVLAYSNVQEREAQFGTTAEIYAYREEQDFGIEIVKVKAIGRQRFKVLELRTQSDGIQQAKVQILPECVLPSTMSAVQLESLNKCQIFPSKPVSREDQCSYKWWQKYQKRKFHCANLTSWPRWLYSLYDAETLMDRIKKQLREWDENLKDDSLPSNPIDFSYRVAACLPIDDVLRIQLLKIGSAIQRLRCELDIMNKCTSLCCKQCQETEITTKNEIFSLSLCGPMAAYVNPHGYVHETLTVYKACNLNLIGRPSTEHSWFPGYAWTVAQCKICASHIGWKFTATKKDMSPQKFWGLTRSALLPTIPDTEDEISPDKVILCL
Sequence (Q16531 2-1140 partner): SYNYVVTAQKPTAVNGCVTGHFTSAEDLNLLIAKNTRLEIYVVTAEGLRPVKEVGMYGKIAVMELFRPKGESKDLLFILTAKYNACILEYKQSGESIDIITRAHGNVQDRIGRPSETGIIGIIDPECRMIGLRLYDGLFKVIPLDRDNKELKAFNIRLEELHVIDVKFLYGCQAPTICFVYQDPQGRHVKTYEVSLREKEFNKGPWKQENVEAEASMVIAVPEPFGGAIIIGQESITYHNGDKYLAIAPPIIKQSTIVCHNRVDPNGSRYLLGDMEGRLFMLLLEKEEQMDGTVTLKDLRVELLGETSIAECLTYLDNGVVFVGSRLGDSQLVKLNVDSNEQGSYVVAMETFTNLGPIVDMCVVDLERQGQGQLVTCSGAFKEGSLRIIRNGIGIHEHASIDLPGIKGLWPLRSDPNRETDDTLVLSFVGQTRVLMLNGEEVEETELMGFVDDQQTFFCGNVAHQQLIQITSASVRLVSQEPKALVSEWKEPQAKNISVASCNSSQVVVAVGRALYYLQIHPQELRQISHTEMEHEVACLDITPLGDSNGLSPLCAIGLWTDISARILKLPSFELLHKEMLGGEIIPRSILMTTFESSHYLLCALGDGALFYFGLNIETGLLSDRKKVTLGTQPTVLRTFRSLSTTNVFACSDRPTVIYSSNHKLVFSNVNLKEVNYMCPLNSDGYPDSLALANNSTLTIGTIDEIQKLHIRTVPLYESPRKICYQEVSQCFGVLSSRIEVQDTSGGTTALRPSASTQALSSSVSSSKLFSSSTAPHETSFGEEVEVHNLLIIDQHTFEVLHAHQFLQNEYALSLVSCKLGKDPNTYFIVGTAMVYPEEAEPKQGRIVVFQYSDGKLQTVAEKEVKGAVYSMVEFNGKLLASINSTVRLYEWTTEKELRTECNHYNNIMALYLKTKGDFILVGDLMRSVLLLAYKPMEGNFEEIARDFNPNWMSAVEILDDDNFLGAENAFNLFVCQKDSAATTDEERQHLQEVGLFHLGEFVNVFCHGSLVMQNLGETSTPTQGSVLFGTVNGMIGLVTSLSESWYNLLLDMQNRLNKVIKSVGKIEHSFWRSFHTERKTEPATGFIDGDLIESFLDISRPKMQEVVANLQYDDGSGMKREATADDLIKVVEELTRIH
Field: Dmax. Provide a value for each of the molecules that follow.
Please state the figure in %; there is no need to write the unit.

INPUT: Recorded Dmax for O=C1CCC(c2c(Cl)cc(CNC(=O)C3(c4ccccc4)CCC3)cc2Cl)C(=O)N1 (stereo not shown) [Compound 130] , please?
OUTPUT: 96

INPUT: What about CC(C)(O)c1ccc(C(C)(C)C(=O)NCc2cc(Cl)c(C3CCC(=O)NC3=O)c(Cl)c2)nn1 (stereo not shown) [Compound 203] ?
OUTPUT: 94

INPUT: What about COc1cnc(C(C)(C)C(=O)NCc2cc(Cl)c(C3CCC(=O)NC3=O)c(Cl)c2)nc1 (stereo not shown) [Compound 189] ?
OUTPUT: 94

INPUT: What about CC(C)(C(=O)NCc1cc(Cl)c(C2CCC(=O)NC2=O)c(Cl)c1)c1ccc(C(F)F)cn1 (stereo not shown) [Compound 4] ?
OUTPUT: 94

INPUT: What about CC(C)(C(=O)NCc1cc(Cl)c(C2CCC(=O)NC2=O)c(Cl)c1)c1cncc(F)c1 (stereo not shown) [Compound 85] ?
OUTPUT: 81

INPUT: What about CC(C)(C(=O)NCc1cc(Cl)c(C2CCC(=O)NC2=O)c(Cl)c1)c1cnc(C#N)nc1 (stereo not shown) [Compound 13] ?
OUTPUT: 73

INPUT: What about CC(C)(C(=O)NCc1cc(Cl)c(C2CCC(=O)NC2=O)c(Cl)c1)c1ccc2nccnc2c1 (stereo not shown) [Compound 49] ?
OUTPUT: 99

INPUT: What about CC(C)(C(=O)NCc1ccc(C2CCC(=O)NC2=O)c(Cl)c1)c1cnc(F)nc1 (stereo not shown) [Compound 3] ?
OUTPUT: 65

INPUT: What about CC(C)(C(=O)NCc1cc(Cl)c(C2CCC(=O)NC2=O)c(Cl)c1)c1ccc2c(c1)S(=O)(=O)NC2 (stereo not shown) [Compound 32] ?
OUTPUT: 95

INPUT: What about CC(C)(C(=O)NCc1cc(Cl)c(C2CCC(=O)NC2=O)c(Cl)c1)c1nnc(C(F)F)o1 (stereo not shown) [Compound 200] ?
OUTPUT: 74

INPUT: What about CC(C)(C(=O)NCc1cc(Cl)c(C2CCC(=O)NC2=O)c(Cl)c1)c1ccccc1F (stereo not shown) [Compound 26] ?
OUTPUT: 96

INPUT: What about CC(C)(C(=O)NCc1cc(Cl)c(C2CCC(=O)NC2=O)c(Cl)c1)c1cc(C(F)(F)F)on1 (stereo not shown) [Compound 230] ?
OUTPUT: 83

INPUT: What about CC(C)(C(=O)NCc1cc(Cl)c(C2CCC(=O)NC2=O)c(Cl)c1)c1ccn2nccc2c1 (stereo not shown) [Compound 82] ?
OUTPUT: 96

INPUT: What about Cc1nnc(C(C)(C)C(=O)NCc2cc(Cl)c(C3CCC(=O)NC3=O)c(Cl)c2)o1 (stereo not shown) [Compound 110] ?
OUTPUT: 76

INPUT: What about COc1cnc(C(C)(C)C(=O)NCc2cc(F)c(C3CCC(=O)NC3=O)c(Cl)c2)cn1 (stereo not shown) [Compound 251] ?
OUTPUT: 92

INPUT: What about CC(C)(C(=O)NCc1cc(Cl)c(C2CCC(=O)NC2=O)c(Cl)c1)c1cccc2ocnc12 (stereo not shown) [Compound 171] ?
OUTPUT: 90

INPUT: What about CC(C)(C(=O)NCc1cc(Cl)c(C2CCC(=O)NC2=O)c(Cl)c1)c1nccc(C(F)F)n1 (stereo not shown) [Compound 182] ?
OUTPUT: 72

INPUT: What about CC(C)(C(=O)NCc1cc(Cl)c(C2CCC(=O)NC2=O)c(Cl)c1)c1ccn(CC(F)(F)F)c(=O)c1 (stereo not shown) [Compound 23] ?
OUTPUT: 88

INPUT: What about CC(C)(C(=O)NCc1cc(Cl)c(C2CCC(=O)NC2=O)c(Cl)c1)c1nc2ccccc2o1 (stereo not shown) [Compound 167] ?
OUTPUT: 96

INPUT: What about CC(F)(F)c1cnc(C(C)(C)C(=O)NCc2cc(Cl)c(C3CCC(=O)NC3=O)c(Cl)c2)nc1 (stereo not shown) [Compound 187] ?
OUTPUT: 93

INPUT: What about CC(C)(C(=O)NCc1cc(Cl)c(C2CCC(=O)NC2=O)c(Cl)c1)c1ccc2[nH]cnc2c1 (stereo not shown) [Compound 69] ?
OUTPUT: 97

INPUT: What about CC(C)(C(=O)NCc1cc(Cl)c(C2CCC(=O)NC2=O)c(Cl)c1)c1ccc(O)c(F)c1 (stereo not shown) [Compound 80] ?
OUTPUT: 97

INPUT: What about CC(C)(C(=O)NCc1cc(Cl)c(C2CCC(=O)NC2=O)c(Cl)c1)N1CCc2ccccc21 (stereo not shown) [Compound 166] ?
OUTPUT: 56

INPUT: What about CN(C)c1ccc(C(C)(C)C(=O)NCc2cc(Cl)c(C3CCC(=O)NC3=O)c(Cl)c2)cc1 (stereo not shown) [Compound 71] ?
OUTPUT: 90

INPUT: What about Cc1nc(C(C)(C)C(=O)NCc2cc(Cl)c(C3CCC(=O)NC3=O)c(Cl)c2)oc1C (stereo not shown) [Compound 212] ?
OUTPUT: 90

INPUT: What about COc1cc(C(C)(C)C(=O)NCc2cc(Cl)c(C3CCC(=O)NC3=O)c(Cl)c2)ccn1 (stereo not shown) [Compound 98] ?
OUTPUT: 95

INPUT: What about CC(C)(C(=O)NCc1cc(Cl)c(C2CCC(=O)NC2=O)c(Cl)c1)c1ccc2occc2c1 (stereo not shown) [Compound 87] ?
OUTPUT: 97

INPUT: What about CC(C)(C(=O)NCc1ccc(C2CCC(=O)NC2=O)c(Br)c1)c1ccc(F)cc1 (stereo not shown) [Compound 64] ?
OUTPUT: 86

----------
target: NEK7 (Homo sapiens (Human), UniProt Q8TDX7+Q96SW2); assay: NEK7 NanoBiT degradation assay in Cal51 NEK7 NanoBiT cell line; assay type: cell-based; conditions: NEK7 degradation, Cal51 NEK7 NanoBiT cells, 24 hours; read-out: NanoBiT DC50
Recorded metric: DC50

INPUT: Recorded DC50 for CC(C)(C(=O)NCc1cc(Cl)c(C2CCC(=O)NC2=O)c(Cl)c1)c1ccccc1 (stereo not drawn) , please?
OUTPUT: ≤ 100 nM

INPUT: What about Cn1cccc(C(C)(C)C(=O)NCc2cc(Cl)c(C3CCC(=O)NC3=O)c(Cl)c2)c1=O (stereo not drawn) ?
OUTPUT: 100 to 1000 nM

INPUT: What about Cc1cc(C(C)(C)C(=O)NCc2cc(Cl)c(C3CCC(=O)NC3=O)c(Cl)c2)cc(=O)[nH]1 (stereo not drawn) ?
OUTPUT: ≤ 100 nM

INPUT: What about CC(C)(C(=O)NCc1cc(F)c(C2CCC(=O)NC2=O)c(Cl)c1)c1ccc(OC(F)(F)F)nn1 (stereo not drawn) ?
OUTPUT: 100 to 1000 nM

INPUT: What about CC(C)(O)c1ccc(C(C)(C)C(=O)NCc2cc(Cl)c(C3CCC(=O)NC3=O)c(Cl)c2)nn1 (stereo not drawn) ?
OUTPUT: ≤ 100 nM

INPUT: What about COc1ccc(C(C)(C)C(=O)NCc2cc(Cl)c(C3CCC(=O)NC3=O)c(Cl)c2)nn1 (stereo not drawn) ?
OUTPUT: ≤ 100 nM

INPUT: What about CC(C)(C(=O)NCc1cc(Cl)c(C2CCC(=O)NC2=O)c(Cl)c1)c1ncc(C(F)F)cn1 (stereo not drawn) ?
OUTPUT: ≤ 100 nM

INPUT: What about CC(C)(C(=O)NCc1cc(Cl)c(C2CCC(=O)NC2=O)c(Cl)c1)c1ccns1 (stereo not drawn) ?
OUTPUT: ≤ 100 nM

INPUT: What about CC(C)(C(=O)NCc1cc(Cl)c(C2CCC(=O)NC2=O)c(Cl)c1)c1ccc(NS(C)(=O)=O)cc1 (stereo not drawn) ?
OUTPUT: ≤ 100 nM

INPUT: What about CC(C)(C(=O)NCc1cc(Cl)c(C2CCC(=O)NC2=O)c(Cl)c1)c1ccc2c(c1)CNS2(=O)=O (stereo not drawn) ?
OUTPUT: ≤ 100 nM

INPUT: What about Cn1ccc(C2(C(=O)NCc3cc(Cl)c(C4CCC(=O)NC4=O)c(Cl)c3)CCC2)cc1=O (stereo not drawn) ?
OUTPUT: ≤ 100 nM

INPUT: What about O=C1CCC(c2ccc(CNC(=O)C3(c4ccc(F)cc4)CCOCC3)cc2Cl)C(=O)N1 (stereo not drawn) ?
OUTPUT: ≤ 100 nM

INPUT: What about CC(C)(C(=O)NCc1cc(Cl)c(C2CCC(=O)NC2=O)c(Cl)c1)c1ccc2[nH]c(=O)oc2c1 (stereo not drawn) ?
OUTPUT: ≤ 100 nM

INPUT: What about Cc1cnc(C(C)(C)C(=O)NCc2cc(C)c(C3CCC(=O)NC3=O)c(Cl)c2)nc1 (stereo not drawn) ?
OUTPUT: 100 to 1000 nM

INPUT: What about CC1(C(=O)NCc2cc(Cl)c(C3CCC(=O)NC3=O)c(Cl)c2)COc2ccccc2C1 (stereo not drawn) ?
OUTPUT: ≤ 100 nM

INPUT: What about CC(C)(C(=O)NCc1cc(Cl)c(C2CCC(=O)NC2=O)c(Cl)c1)c1ncncc1F (stereo not drawn) ?
OUTPUT: ≤ 100 nM

INPUT: What about CC(C)(C(=O)NCc1cc(Cl)c(C2CCC(=O)NC2=O)c(C#N)c1)c1ccccc1 (stereo not drawn) ?
OUTPUT: 100 to 1000 nM

INPUT: What about CC(C)(C(=O)NCc1cc(Cl)c(C2CCC(=O)NC2=O)c(Cl)c1)c1cnc(C2CC2)cn1 (stereo not drawn) ?
OUTPUT: ≤ 100 nM

INPUT: What about CC(C)(C(=O)NCc1cc(Cl)c(C2CCC(=O)NC2=O)c(Cl)c1)c1ccnc(C#N)c1 (stereo not drawn) ?
OUTPUT: ≤ 100 nM

INPUT: What about CC(C)(C(=O)NCc1cc(Cl)c(C2CCC(=O)NC2=O)c(Cl)c1)c1ccncn1 (stereo not drawn) ?
OUTPUT: ≤ 100 nM

INPUT: What about CC(C)(C(=O)NCc1cc(Cl)c(C2CCC(=O)NC2=O)c(Cl)c1)c1cc(C#N)ccn1 (stereo not drawn) ?
OUTPUT: 100 to 1000 nM

INPUT: What about CC(C)(C(=O)NCc1cc(F)c(C2CCC(=O)NC2=O)c(Cl)c1)c1ccc(C(F)F)nn1 (stereo not drawn) ?
OUTPUT: 100 to 1000 nM

INPUT: What about CC(C)(C(=O)NCc1ccc(C2CCC(=O)NC2=O)c(Cl)c1)c1cccc(C#N)c1 (stereo not drawn) ?
OUTPUT: 100 to 1000 nM

INPUT: What about CC(C)(C(=O)NCc1cc(Cl)c([C@@H]2CCC(=O)NC2=O)c(Cl)c1)c1ncc(C#N)cn1 (single isomer, unassigned) ?
OUTPUT: ≤ 100 nM
